systemName: T1, hCD71-Nluc fusion protein (human, UniProt P02786 1-760)
T1 construct: whole, on cells; Used as crude membrane fractions of HEK293 cells stably expressing hCD71-Nluc; also called human transferrin receptor, CD71, fused to NanoLuc; not shown: NanoLuc (ProMega) luciferase joined through its N-terminal Val
T1 sequence (P02786 other isoform, or with tags, fused parts or gaps): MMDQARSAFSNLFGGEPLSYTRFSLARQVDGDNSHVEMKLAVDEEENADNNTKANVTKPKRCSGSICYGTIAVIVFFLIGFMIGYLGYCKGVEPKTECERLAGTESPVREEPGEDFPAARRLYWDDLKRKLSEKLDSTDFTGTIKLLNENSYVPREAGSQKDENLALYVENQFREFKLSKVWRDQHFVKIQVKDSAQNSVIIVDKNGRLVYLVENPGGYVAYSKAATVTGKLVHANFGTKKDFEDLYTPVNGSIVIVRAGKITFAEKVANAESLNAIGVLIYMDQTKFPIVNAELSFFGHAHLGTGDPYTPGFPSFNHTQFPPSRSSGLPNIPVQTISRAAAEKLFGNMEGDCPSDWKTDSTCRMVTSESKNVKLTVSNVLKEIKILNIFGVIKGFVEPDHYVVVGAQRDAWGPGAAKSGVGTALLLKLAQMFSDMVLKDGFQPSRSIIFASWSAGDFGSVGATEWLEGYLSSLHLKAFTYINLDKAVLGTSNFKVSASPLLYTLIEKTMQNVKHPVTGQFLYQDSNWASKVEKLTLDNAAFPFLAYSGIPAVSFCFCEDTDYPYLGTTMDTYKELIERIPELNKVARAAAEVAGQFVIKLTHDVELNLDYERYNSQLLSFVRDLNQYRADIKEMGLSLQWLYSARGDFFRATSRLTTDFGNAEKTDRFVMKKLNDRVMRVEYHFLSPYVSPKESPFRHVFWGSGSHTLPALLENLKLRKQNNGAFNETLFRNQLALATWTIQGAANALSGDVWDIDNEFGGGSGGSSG
assayText: nanoBRET competition, tracer BCY17871-1598988 60 nM, HEK293 hCD71-Nluc membranes
Starred links: 1 amine or outer side, 2 acyl side, 3 side chain; linkers in the order of their positions; H or OH if unused. Positions of bridges follow the written chain, without caps; N, C: chain ends. Non-standard residues stand in square brackets, D forms with d. TATB = O=C(C[*:1])N1CN(C(=O)C[*:2])CN(C(=O)C[*:3])C1; Lys(N3) = [N-]=[N+]=NCCCC[C@H](N)C(=O)O
measurementKind: pKi
# pKi is unitless: minus log10 of the molar concentration; print number only

-- ask Which pKi value is on record for Ac-C[Lys(N3)]PDAHLGCISYC-NH2 (linker 1-9-13 via TATB; not fully specified (residue 2); printed as C[K(N3)]PDAHLGCISYC; also: azide of K(N3) in loop clicked via BCN linker to oligonucleotide 1590463, also called Compound No. 1590463 conjugated to BCY17903) [1590463-BCY17903] ?
-- reply 6.90

-- ask Which pKi value is on record for CPXDAYLGCXSYCEPWX (not fully specified; as printed CP[HyP]DAYLGC[tBuGly]SYCEPW[K(N3)]: N-terminal acetyl; C-terminal amide; three Cys bound to TATB scaffold; [HyP] 4-trans-hydroxy-L-proline at 3; [tBuGly] t-butyl glycine at 10; [K(N3)] 6-azido lysine at 17 joined via BCN linker to oligonucleotide 1590463, also called Compound 1590463-BCY17901; Compound No. 1666846) [1590463-BCY17901] ?
-- reply 9.00

-- ask Which pKi value is on record for CSPDAHLGCISYCEPWX (not fully specified; as printed CSPDAHLGCISYCEPW[K(N3)]: N-terminal acetyl; C-terminal amide; three Cys bound to TATB scaffold; [K(N3)] 6-azido lysine at 17 joined via BCN linker to oligonucleotide 1590463, also called Compound No. 1590463 conjugated to BCY17873) [1590463-BCY17873] ?
-- reply 8.15

-- ask Which pKi value is on record for Ac-CSPD[Lys(N3)]HLGCISYC-NH2 (linker 1-9-13 via TATB; not fully specified (residue 5); printed as CSPD[K(N3)]HLGCISYC; also: azide of K(N3) in loop clicked via BCN linker to oligonucleotide 1590463, also called Compound No. 1590463 conjugated to BCY17905) [1590463-BCY17905] ?
-- reply 6.83
